target: human Y2 receptor (human) (UniProt P49146); experiment: cell-based or functional assay
Sequence (P49146 whole entry): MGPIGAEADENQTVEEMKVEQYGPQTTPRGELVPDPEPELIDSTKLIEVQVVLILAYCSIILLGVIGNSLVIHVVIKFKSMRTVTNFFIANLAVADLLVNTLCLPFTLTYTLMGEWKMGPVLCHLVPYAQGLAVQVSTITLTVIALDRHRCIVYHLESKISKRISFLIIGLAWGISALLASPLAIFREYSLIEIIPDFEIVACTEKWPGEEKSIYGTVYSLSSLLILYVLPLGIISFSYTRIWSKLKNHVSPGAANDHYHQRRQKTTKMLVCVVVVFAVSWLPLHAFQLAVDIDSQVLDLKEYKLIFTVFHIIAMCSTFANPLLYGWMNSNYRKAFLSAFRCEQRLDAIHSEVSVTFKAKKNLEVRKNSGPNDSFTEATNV
Starred links: 1 amine or outer side, 2 acyl side, 3 side chain; linkers in the order of their positions; H or OH if unused. Non-standard residues stand in square brackets, D forms with d. *: point of attachment. Asn(Me) = N-omega-methylasparagine, CNC(=O)C[C@H](N[*:1])C(=O)[*:2]; 1Nal = N[C@@H](Cc1cccc2ccccc12)C(=O)O; Cyclohexanecarbonyl = O=C(C1CCCCC1)*; Cha = N[C@@H](CC1CCCCC1)C(=O)O; Iva = CC[C@](C)(N)C(=O)O; Aib = CC(C)(N)C(=O)O; Bz = O=C(c1ccccc1)*
Consider the following binders; for each one, report its GBA EC50 Ratio (vs PYY(3-36)), [35S]GTPγS.
Write the number on its own, no unit after it.

Inquiry: Given the binder Cyclohexanecarbonyl-RH[Cha]I[Asn(Me)]LITRQR[Cha]-NH2 (SMILES CC[C@H](C)[C@H](NC(=O)[C@H](CC1CCCCC1)NC(=O)[C@H](Cc1c[nH]cn1)NC(=O)[C@H](CCCNC(=N)N)NC(=O)C1CCCCC1)C(=O)N[C@@H](CC(=O)NC)C(=O)N[C@@H](CC(C)C)C(=O)N[C@H](C(=O)N[C@H](C(=O)N[C@@H](CCCNC(=N)N)C(=O)N[C@@H](CCC(N)=O)C(=O)N[C@@H](CCCNC(=N)N)C(=O)N[C@@H](CC1CCCCC1)C(N)=O)[C@@H](C)O)[C@@H](C)CC) [Cyclohexanecarbonyl-[Cha27,36, Ile28,31, Asn(Me)29]-PYY(25-36)] , what is its reported GBA EC50 Ratio (vs PYY(3-36)), [35S]GTPγS?
Reply text: 37

Inquiry: Given the binder Bz-RH[Cha][1Nal]NL[Aib]TRQR[Cha]-NH2 (SMILES CC(C)C[C@H](NC(=O)[C@H](CC(N)=O)NC(=O)[C@H](Cc1cccc2ccccc12)NC(=O)[C@H](CC1CCCCC1)NC(=O)[C@H](Cc1c[nH]cn1)NC(=O)[C@H](CCCNC(=N)N)NC(=O)c1ccccc1)C(=O)NC(C)(C)C(=O)N[C@H](C(=O)N[C@@H](CCCNC(=N)N)C(=O)N[C@@H](CCC(N)=O)C(=O)N[C@@H](CCCNC(=N)N)C(=O)N[C@@H](CC1CCCCC1)C(N)=O)[C@@H](C)O) [Benzoyl-[Cha27,36, Nal(1)28, Aib31]-PYY(25-36)] , what is its reported GBA EC50 Ratio (vs PYY(3-36)), [35S]GTPγS?
Reply text: 25

Inquiry: Given the binder Ac-S[dP]R[Iva][Cha][Cha]NL[Aib]TRQR[Cha]-NH2 (SMILES CC[C@](C)(NC(=O)[C@H](CCCNC(=N)N)NC(=O)[C@H]1CCCN1C(=O)[C@H](CO)NC(C)=O)C(=O)N[C@@H](CC1CCCCC1)C(=O)N[C@@H](CC1CCCCC1)C(=O)N[C@@H](CC(N)=O)C(=O)N[C@@H](CC(C)C)C(=O)NC(C)(C)C(=O)N[C@H](C(=O)N[C@@H](CCCNC(=N)N)C(=O)N[C@@H](CCC(N)=O)C(=O)N[C@@H](CCCNC(=N)N)C(=O)N[C@@H](CC1CCCCC1)C(N)=O)[C@@H](C)O) [Ac-[D-Pro24, Iva26, Cha27,28,36, Aib31]-PYY(23-36)] , what is its reported GBA EC50 Ratio (vs PYY(3-36)), [35S]GTPγS?
Reply text: 4.2
